Assay: chemical genetic growth profiling, strain panel (AID 1159580);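 note: tested at 20 µM; growth read once vehicle control cultures reached saturation at 30 °C; 1 = growth at the plate median or of vehicle wells; lower values mean less growth of the strain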
Conditions: S. cerevisiae deletion strains, growth OD, locus YNL153C, strain GIM3, active compounds read low
About 2,000 (36%) of roughly 5,500 compounds were called active. Roughly 18% stayed inconclusive and do not appear here. The list shows a part of the results.
Reported normalized growth by item:

Consider the following illustrative entries.
CC(=O)O[C@H]1CC[C@]2(C)C3C(=O)[C@@H](OC(C)=O)[C@@]4(C)C(C[C@@H]5O[C@]6(CCC(C)CO6)[C@@H](C)[C@@H]54)C3CC[C@H]2C1 (some centres not stated); 0.988 (inactive)
O=C(Nc1ccccc1)c1ccccc1O; 0.94 (inactive)
CCS(=O)(=O)Nc1cccc(C(=C2CCCCC2)c2cnc[nH]2)c1; 1.03 (inactive)
CC(=O)O[C@H]1CC[C@]2(C)C3=CC(=O)[C@@]4(C)C(C[C@@H]5OC6(OCC(C)CC6Br)[C@@H](C)[C@@H]54)C3CC[C@H]2C1 (some centres not stated); 0.993 (inactive)
COC(=O)CCCOc1ccc(Cl)cc1Cl; 0.999 (inactive)

Task: Identify measured normalized growth corresponding to CCN(CC)C(C)CN1c2ccccc2Sc2ccccc21 (configuration not stated)
Result: 0.963 (inactive)

Task: Identify measured normalized growth corresponding to `N[C@@H](Cc1cc(I)c(Oc2cc(I)c(O)c(I)c2)c(I)c1)C(=O)O`
Result: 1.02 (inactive)

Task: Identify measured normalized growth corresponding to `N[C@@H](Cn1oc(=O)[nH]c1=O)C(=O)O`
Result: 0.996 (inactive)

Task: Identify measured normalized growth corresponding to `O=S(=O)(Nc1ccc(Oc2ccc(Cl)cc2)cc1)c1ccccc1`
Result: 0.879 (active)

---

Assay: chemical genetic growth profiling, strain panel (AID 1159580);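 note: tested at 20 µM; growth read once vehicle control cultures reached saturation at 30 °C; 1 = growth at the plate median or of vehicle wells; lower values mean less growth of the strain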
Conditions: S. cerevisiae deletion strains, growth OD, locus YPR119W, strain clb2
About 2,000 (36%) of roughly 5,500 compounds were called active. About 18% were inconclusive and are not listed. Cut-off read from the data, not from the text of the source: active = normalized growth mostly below about 0.91 (no sharp cut-off); inconclusive = no clear call, values can overlap the other calls; inactive = mostly above about 0.92. The list shows a part of the results. Where a SMILES comes first, the peptide text is derived from it.
Give your call using only these classes: true (1) for active, false (0) for inactive

Answered examples (4):
C[C@H](N)[C@H](O)c1cccc(O)c1; false (0)
CC[C@H](CCC(C)[C@H]1CCC2C3CCC4C[C@@H](O)CC[C@]4(C)C3CC[C@@]21C)C(C)C (stereo not given in full); false (0)
N[C@H](Cc1cc(I)c(Oc2ccc(O)c(I)c2)c(I)c1)C(=O)O; false (0)
CCCC(CCC)C(=O)O; false (0)

Task: GET /call?item= COC(=O)CCC(=O)O[C@H]1CCC2(C)C(CCC3C2C(=O)[C@@H](O)C2(C)C3CC3OC4(CCC(C)CO4)[C@@H](C)C32)C1 (stereo not given in full) returns the recorded outcome of this test.
Result: false (0)

Task: GET /call?item= NC(Cc1ccc(F)cc1)C(=O)O (stereo not given) returns the recorded outcome of this test.
Result: false (0)

Task: GET /call?item= C=C1C2CC[C@@]3(C)[C@H](c4ccoc4)OC(=O)C[C@]13O[C@H]1CC(=O)C(C)(C)C(CC(=O)OC)[C@@]21C (stereo not given in full) returns the recorded outcome of this test.
Result: false (0)

Task: GET /call?item= `COc1cc([C@@H]2c3cc4c(cc3[C@H](OC(C)=O)[C@H]3COC(=O)[C@@H]23)OCO4)cc(OC)c1OC` returns the recorded outcome of this test.
Result: false (0)

Task: GET /call?item= CC(C)CCCC(C)C1CCC2C3CC[C@H]4CCCC[C@]4(C)C3CC[C@]12C (stereo not given in full) returns the recorded outcome of this test.
Result: false (0)

Task: GET /call?item= `COc1cc(OC)c2c3c1C(=O)c1c(OC)cc(C)c4c(OC)cc(c-3c14)C(C)(C)C2=O` returns the recorded outcome of this test.
Result: false (0)

Task: GET /call?item= CC(CCC(=O)O)[C@H]1CCC2C3C[C@H](O)[C@@H]4C[C@H](O)CC[C@]4(C)C3CC[C@@]21C (stereo not given in full) returns the recorded outcome of this test.
Result: false (0)

Task: GET /call?item= CC(CCC(=O)O)[C@H]1CCC2C3CC[C@@H]4CCCC[C@]4(C)C3CC[C@@]21C (stereo not given in full) returns the recorded outcome of this test.
Result: false (0)

Task: GET /call?item= CN(C)CCC(c1ccc(Br)cc1)c1ccccn1 (stereo not given) returns the recorded outcome of this test.
Result: false (0)

Task: GET /call?item= `CCCCC[C@H](CC(=O)NO)C(=O)N[C@H](C(=O)N1CCC[C@H]1CO)C(C)C` returns the recorded outcome of this test.
Result: false (0)

Task: GET /call?item= `O=C(O)c1ccccc1C(=O)Nc1ccc(S(=O)(=O)Nc2nccs2)cc1` returns the recorded outcome of this test.
Result: false (0)

Task: GET /call?item= NCCCCC(N)C(=O)NC(Cc1ccc(O)cc1)C(=O)NC(CCCCN)C(=O)O (stereo not drawn) (H-Lys-Tyr-Lys-OH; configuration not given here) returns the recorded outcome of this test.
Result: false (0)

Task: GET /call?item= C=C1C2=CC(=O)O[C@@H](c3ccoc3)[C@]2(C)CCC1[C@@]1(C)C=CC(=O)C(C)(C)[C@@H]1CC(=O)OC (stereo not given in full) returns the recorded outcome of this test.
Result: false (0)

Task: GET /call?item= CC(CN(C)C)CN1c2ccccc2Sc2ccccc21 (stereo not given) returns the recorded outcome of this test.
Result: false (0)

Task: GET /call?item= `CNC(=O)Oc1ccc2c(c1)[C@]1(C)CCN(C)[C@@H]1N2C` returns the recorded outcome of this test.
Result: false (0)

Task: GET /call?item= CC(CCC(=O)O)[C@H]1CCC2C3C(C[C@H](O)[C@@]21C)[C@@]1(C)CC[C@@H](O)C[C@H]1C[C@H]3O (stereo not given in full) returns the recorded outcome of this test.
Result: false (0)

Task: GET /call?item= `CN1CCN(C2=Nc3ccccc3Oc3ccc(Cl)cc32)CC1` returns the recorded outcome of this test.
Result: false (0)

Task: GET /call?item= `c1ccc2c(c1)CN1CCCC1=N2` returns the recorded outcome of this test.
Result: false (0)

Task: GET /call?item= `O=C(Nc1ccccc1)Nc1ccccc1` returns the recorded outcome of this test.
Result: false (0)

Task: GET /call?item= C=C1C2CCC3(C)C(c4ccoc4)OC(=O)CC13OC1CC(OC(C)=O)C(C)(C)C(CC(=O)OC)C12C (stereo not given) returns the recorded outcome of this test.
Result: false (0)

Task: GET /call?item= C=C1C(C2(C)C=CC(=O)C(C)(C)C2CC(=O)OC)CC[C@@]2(C)[C@H](c3ccoc3)OC(=O)C3OC132 (stereo not given in full) returns the recorded outcome of this test.
Result: false (0)

Task: GET /call?item= `COC(=O)c1c(C)cc(OC(=O)c2c(C)cc(O)c(C=O)c2O)c(C)c1O` returns the recorded outcome of this test.
Result: false (0)

Task: GET /call?item= `CC12CC3CC(C)(C1)CC(N)(C3)C2` returns the recorded outcome of this test.
Result: false (0)

Task: GET /call?item= Cc1cc(C)cc(OCC2CNC(=O)O2)c1 (stereo not given) returns the recorded outcome of this test.
Result: false (0)

Task: GET /call?item= `C[C@@H](N)[C@@H](O)c1ccccc1` returns the recorded outcome of this test.
Result: false (0)

Task: GET /call?item= CC1(C)C(=O)C=C[C@@]2(C)C1CC(=O)[C@@]1(C)C3=CC(=O)O[C@@H](c4ccoc4)[C@]3(C)CCC12 (stereo not given in full) returns the recorded outcome of this test.
Result: false (0)

Task: GET /call?item= CC(CN(C)C)CN1c2ccccc2CCc2ccccc21 (stereo not given) returns the recorded outcome of this test.
Result: false (0)

Task: GET /call?item= `S=P(N1CC1)(N1CC1)N1CC1` returns the recorded outcome of this test.
Result: false (0)

Task: GET /call?item= `N[C@@H](Cc1cc(I)c(Oc2cc(I)c(O)c(I)c2)c(I)c1)C(=O)O` returns the recorded outcome of this test.
Result: false (0)

Task: GET /call?item= `COC(=O)c1c(C)cc(OC(=O)c2c(C)c(Cl)c(O)c(C=O)c2O)c(C)c1O` returns the recorded outcome of this test.
Result: false (0)

Task: GET /call?item= `CC(=O)Nc1ccccc1` returns the recorded outcome of this test.
Result: false (0)

Task: GET /call?item= `C=C[C@H]1CN2CC[C@H]1C[C@@H]2[C@H](O)c1ccnc2ccccc12` returns the recorded outcome of this test.
Result: false (0)

---

Experiment: chemical genetic growth profiling, strain panel (AID 1159580);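 note: tested at 20 µM; growth read once vehicle control cultures reached saturation at 30 °C; 1 = growth at the plate median or of vehicle wells; lower values mean less growth of the strain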
Settings: S. cerevisiae deletion strains, growth OD, locus YBR229C, strain ROT2, active compounds read low
Hit rate of the full screen: of about 5,500 compounds, about 2,000 (36%) were called active. Not shown: some 18% with an inconclusive outcome. Some of the results follow.
Reported normalized growth by item:
Number, no unit, nothing else.

CSc1ccc2c(c1)N(CCC1CCCCN1C)c1ccccc1S2 (stereo not given); 0.451
COc1ccc(N=Cc2ccccc2O)cc1; 0.99
Cc1nn(Cc2n[nH]c(=S)o2)c(C)c1Br; 0.993
CN1CC(CNC(=O)OCc2ccccc2)CC2c3cccc4c3c(cn4C)CC21 (stereo not given); 1
CC(=O)Nc1nnc(S(N)(=O)=O)s1; 0.95

Task: Identify measured normalized growth corresponding to Nc1ccn(C2O[C@H](CO)[C@@H](O)[C@H]2O)c(=O)n1 (stereo not given in full)
Result: 0.997

Task: Identify measured normalized growth corresponding to `CC(=O)N=c1sc(S(N)(=O)=O)nn1C`
Result: 1.01

Task: Identify measured normalized growth corresponding to C[C@@H]1CC2C3C[C@H](F)C4=CC(=O)C=C[C@]4(C)[C@@]3(F)[C@@H](O)C[C@]2(C)[C@@]1(O)C(=O)COC(=O)C(C)(C)C (stereo not given in full)
Result: 1

Task: Identify measured normalized growth corresponding to `CCOC(=O)[C@H](CCc1ccccc1)N[C@@H](C)C(=O)N1Cc2ccccc2C[C@H]1C(=O)O`
Result: 1

Task: Identify measured normalized growth corresponding to CC1CC2C3CC(F)C4=CC(=O)C=CC4(C)C3(F)C(O)CC2(C)C1C(=O)COC(=O)C(C)(C)C (stereo not given)
Result: 0.997
